- test.protocol: Mycobacterium tuberculosis H37Rv growth inhibition, putative kinase inhibitor library, confirmatory dose response (AID 2842);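 further: bacteria incubated one week before Alamar blue readout; 0% = bacteria only wells and 100% = bacteria with high antibiotic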
- study.conditions: M. tuberculosis H37Rv growth inhibition; active compounds read high
Among all 24,000 compounds or so, about 1,200 (5%) were called active. About 2% were inconclusive and are not listed. Only a sample is shown.
observation.type: inhibition

See these solved cases before continuing.
compound: CCOC(=O)CNc1ncnc(N)c1[N+](=O)[O-]
inhibition: 2.73% (inactive)
//
compound: Nn1c(SCC(=O)Nc2ccc(C(F)(F)F)cc2)nncc1=O
inhibition: -15.7% (inactive)
//
compound: Fc1ccc(-c2nnc(Nc3nc4c(F)cccc4s3)o2)cc1
inhibition: 35.7% (inactive)
//
compound: NC(=O)c1oc2ccccc2c1NC(=O)c1ccc(Cl)s1
inhibition: 14.6% (inactive)
//
compound: Cn1c(=O)c2c([nH]c(=S)n2Cc2ccc(F)cc2)n(C)c1=O
inhibition: -5.83% (inactive)
//
compound: CC(C)c1nnc(SCc2c(Cl)ccc(Cl)c2Cl)n1N
inhibition: -13.8% (inactive)
//
compound: O=C(Nc1nnc(-c2cccs2)o1)C(c1ccccc1)c1ccccc1
inhibition: 9.32% (inactive)
//
compound: CCc1ccc(NC(=O)CSc2nc(-c3cccs3)nc3c2c(=O)n(C)c(=O)n3C)cc1
inhibition: -5.83% (inactive)
//
compound: COc1ccc(-n2c(=O)[nH]cc(C(=O)Nc3ccc4c(c3)OCO4)c2=O)cc1OC
inhibition: 1.59% (inactive)
//
compound: COc1ccc(Cl)c2sc(N(Cc3cccnc3)C(=O)c3cccc(S(C)(=O)=O)c3)nc12
inhibition: -13.3% (inactive)

inhibition measured on COC(=O)c1ccc(CSc2nnc3[nH]c(=O)c(C)c(C)n23)o1 = -3.33% (inactive)

inhibition measured on Cc1cccc(NC(=O)C2C(=O)CN(c3ccccc3)C2=O)c1 (stereo unspecified) = -3.29% (inactive)

inhibition measured on O=C(O)COc1ccccc1/C=C1/SC(=S)N(NC(=O)c2ccco2)C1=O = -1.98% (inactive)

inhibition measured on COc1cccc2c1OC(c1ccncc1)N1N=C(c3cc(C)ccc3O)CC21 (stereo unspecified) = 0.62% (inactive)

inhibition measured on O=C(CSc1cn(Cc2ccccc2Cl)c2ccccc12)Nc1nc2ccccc2s1 = 10.2% (inactive)

---

Below is a list of entries, each paired with its recorded inhibition value.
- test.protocol: Mycobacterium tuberculosis H37Rv growth inhibition, putative kinase inhibitor library, confirmatory dose response (AID 2842);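 further: bacteria incubated one week before Alamar blue readout; 0% = bacteria only wells and 100% = bacteria with high antibiotic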
- study.conditions: M. tuberculosis H37Rv growth inhibition; active compounds read high
In all, about 24,000 compounds went through this assay and about 1,200 (5%) were called active. Inconclusive results (about 2%) are left out. The list is a sample of the results.
// units = %; emit number, no label

See these solved cases before continuing.
molecule: O=C(COc1ccccc1F)NC1CC(=O)N(c2ccc(Cl)cc2)C1 (stereo unspecified)
endpoint.unit: %
assay.value: 7.9
//
molecule: Cc1c(C(=O)O)c2cc(O)ccc2n1C
endpoint.unit: %
assay.value: 12.9
//
molecule: Cc1nnc(SCc2ccc([N+](=O)[O-])cc2)n(N)c1=O
endpoint.unit: %
assay.value: 1.18
//
molecule: Cc1csc(NC(=O)CSc2nnc(CNC(=O)c3cccc(C(F)(F)F)c3)o2)n1
endpoint.unit: %
assay.value: -15.1
//
molecule: O=c1[nH]c(NCc2ccc3c(c2)OCO3)nnc1Cc1ccc(F)cc1
endpoint.unit: %
assay.value: -0.653
//
molecule: CCC(CC)C(=O)Nc1nnc(-c2ccc(Br)cc2)s1
endpoint.unit: %
assay.value: 5.92
//
molecule: CS(=O)(=O)c1ccc([N+](=O)[O-])c(NCCCC(=O)O)c1
endpoint.unit: %
assay.value: -6.3
//
molecule: COc1cc(C)c(S(=O)(=O)Nc2ccc(-n3c(C)nc4ccccc4c3=O)cc2C)cc1C
endpoint.unit: %
assay.value: -7.48
//
molecule: Nc1nc(SCC(=O)Nc2cccc(F)c2)[nH]c(=O)c1NC(=O)c1ccc(F)cc1
endpoint.unit: %
assay.value: -6.89
//
molecule: CCOC(=O)c1nn(-c2ccc(C)cc2)c(=O)cc1NCc1ccncc1
endpoint.unit: %
assay.value: -9.72

Switching to the query record.
inhibition measured on COc1ccc(CNc2nc3c(-c4ccc(Cl)cc4)nnn3c3ccccc23)cc1 = 4.87
